Molecular target: endogenous BCL-xL (Homo sapiens)
Construct: endogenous in cells; host or cells: COR-L105 (ECACC No. 92031918); NCI-H1650 (ATCC No. CRL-5883)
Sequence (Q07817 whole entry): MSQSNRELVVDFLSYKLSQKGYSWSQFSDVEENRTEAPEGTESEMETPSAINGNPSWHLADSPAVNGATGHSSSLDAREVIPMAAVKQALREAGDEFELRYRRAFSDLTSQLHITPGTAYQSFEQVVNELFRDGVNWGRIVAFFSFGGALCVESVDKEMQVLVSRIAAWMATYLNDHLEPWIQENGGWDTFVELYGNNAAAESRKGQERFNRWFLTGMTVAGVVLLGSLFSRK
Assay: Degradation of endogenous BCL-xL in COR-L105 (ProteinSimple Jess)
Format: cell-based
Settings: COR-L105, 24 h, COR-L105, dose 300 nM, read-out: % BCL-xL vs. Untreated, COR-L105
Class key for remaining activity at 0.3 µM values: one (below 30%), two (30% to below 60%), three (60% or more)

compound	category
Cc1ncsc1-c1ccc([C@H](C)NC(=O)[C@@H]2C[C@@H](O)CN2C(=O)[C@@H](NC(=O)CCCCCCCCCCC(=O)N2CCN(CC#Cc3ccc(OCCCc4sc(N5CCCc6c5nnc(Nc5nc7ccccc7s5)c6C)nc4C(=O)O)c(F)c3)CC2)C(C)(C)C)cc1	one
Cc1ncsc1-c1ccc([C@H](C)NC(=O)[C@@H]2C[C@@H](O)CN2C(=O)[C@@H](NC(=O)CSCC(=O)N2CCN(CC#Cc3ccc(OCCCc4sc(N5CCCc6c5nnc(Nc5nc7ccccc7s5)c6C)nc4C(=O)O)c(F)c3)CC2)C(C)(C)C)cc1	three
Cc1ncsc1-c1ccc([C@H](C)NC(=O)[C@@H]2C[C@@H](O)CN2C(=O)[C@@H](NC(=O)CCCCCC(=O)N2CCN(CC#Cc3ccc(OCCCc4sc(N5CCCc6c5nnc(Nc5nc7ccccc7s5)c6C)nc4C(=O)O)c(F)c3)CC2)C(C)(C)C)cc1	three
Cc1ncsc1-c1ccc([C@H](C)NC(=O)[C@@H]2C[C@@H](O)CN2C(=O)[C@@H](NC(=O)CCC(=O)N2CCN(CCOC34CC5(C)CC(C)(CC(Cn6ncc(-c7ccc(N8CCCc9c8nnc(Nc8nc%10ccccc%10s8)c9C)nc7C(=O)O)c6C)(C5)C3)C4)CC2)C(C)(C)C)cc1	three
Cc1ncsc1-c1ccc(CNC(=O)[C@@H]2C[C@@H](O)CN2C(=O)[C@@H](NC(=O)CCCCCCCCCCC(=O)N2CCN(CC#Cc3ccc(OCCCc4sc(N5CCCc6c5nnc(Nc5nc7ccccc7s5)c6C)nc4C(=O)O)c(F)c3)CC2)C(C)(C)C)c(O)c1	two
Cc1ncsc1-c1ccc([C@H](C)NC(=O)[C@@H]2C[C@@H](O)CN2C(=O)[C@@H](NC(=O)CCCCCCCCN2CCN(CC#Cc3ccc(OCCCc4sc(N5CCCc6c5nnc(Nc5nc7ccccc7s5)c6C)nc4C(=O)O)c(F)c3)CC2)C(C)(C)C)cc1	one
Cc1ncsc1-c1ccc([C@H](C)NC(=O)[C@@H]2C[C@@H](O)CN2C(=O)[C@@H](NC(=O)CCCC(=O)N2CCN(CC#Cc3ccc(OCCCc4sc(N5CCCc6c5nnc(Nc5nc7ccccc7s5)c6C)nc4C(=O)O)c(F)c3)CC2)C(C)(C)C)cc1	three
Cc1ncsc1-c1ccc(CNC(=O)[C@@H]2C[C@@H](O)CN2C(=O)[C@@H](NC(=O)C2(F)CC2)C(C)(C)C)c(OCC(=O)NCCCCCN2CCN(CC#Cc3ccc(OCCCc4sc(N5CCCc6c5nnc(Nc5nc7ccccc7s5)c6C)nc4C(=O)O)c(F)c3)CC2)c1	two
Cc1ncsc1-c1ccc([C@H](C)NC(=O)[C@@H]2C[C@@H](O)CN2C(=O)[C@@H](NC(=O)CCCCCCCCCCC(=O)N2CCN(CCOC34CC5(C)CC(C)(CC(Cn6ncc(-c7ccc(N8CCCc9c8nnc(Nc8nc%10ccccc%10s8)c9C)nc7C(=O)O)c6C)(C5)C3)C4)CC2)C(C)(C)C)cc1	one
Cc1ncsc1-c1ccc([C@H](C)NC(=O)[C@@H]2C[C@@H](O)CN2C(=O)[C@@H](NC(=O)CC2(CC(=O)N3CCN(CC#Cc4ccc(OCCCc5sc(N6CCCc7c6nnc(Nc6nc8ccccc8s6)c7C)nc5C(=O)O)c(F)c4)CC3)CCCC2)C(C)(C)C)cc1	three
Cc1ncsc1-c1ccc([C@H](C)NC(=O)[C@@H]2C[C@@H](O)CN2C(=O)[C@@H](NC(=O)CN(C)CC(=O)N2CCN(CC#Cc3ccc(OCCCc4sc(N5CCCc6c5nnc(Nc5nc7ccccc7s5)c6C)nc4C(=O)O)c(F)c3)CC2)C(C)(C)C)cc1	three
Cc1ncsc1-c1ccc([C@H](C)NC(=O)[C@@H]2C[C@@H](O)CN2C(=O)[C@@H](NC(=O)CC23CC4CC(C2)CC(CC(=O)N2CCN(CC#Cc5ccc(OCCCc6sc(N7CCCc8c7nnc(Nc7nc9ccccc9s7)c8C)nc6C(=O)O)c(F)c5)CC2)(C4)C3)C(C)(C)C)cc1	two
Cc1ncsc1-c1ccc(CNC(=O)[C@@H]2C[C@@H](O)CN2C(=O)[C@@H](NC(=O)COCCOCCOCC(=O)N2CCN(CC#Cc3ccc(OCCCc4sc(N5CCCc6c5nnc(Nc5nc7ccccc7s5)c6C)nc4C(=O)O)c(F)c3)CC2)C(C)(C)C)cc1	three
Cc1ncsc1-c1ccc(CNC(=O)[C@@H]2CC(O)CN2C(=O)C(NC(=O)CCCCCCC(=O)N2CCN(CCOC34CC5(C)CC(C)(CC(Cn6ncc(-c7ccc(N8CCCc9c8nnc(Nc8nc%10ccccc%10s8)c9C)nc7C(=O)O)c6C)(C5)C3)C4)CC2)C(C)(C)C)cc1 (stereo in doubt)	two
Cc1ncsc1-c1ccc([C@H](C)NC(=O)[C@@H]2C[C@@H](O)CN2C(=O)[C@@H](NC(=O)CCCCCCCCCCCN2CCN(CC#Cc3ccc(OCCCc4sc(N5CCCc6c5nnc(Nc5nc7ccccc7s5)c6C)nc4C(=O)O)c(F)c3)CC2)C(C)(C)C)cc1	one
